Reference source: patent US7311918B2

tested on: EDIM virus (murine rotavirus); type: in vivo, BALB/c mice; settings: mouse, in vivo
Measured % Reduction in shedding values are reported for all entries that follow.
assay_readout: % Reduction in shedding (%)

substance | assay_readout | experimental_result
Peptide 3: one of 11 overlapping synthetic peptides (18 to 31 amino acids) of the CD region of VP6, Table 10 (FSFPRVINSADGATTWYFNPVILRPNNVEV; Rotavirus VP6 fragment) | % Reduction in shedding | 57
Peptide 11: one of 11 overlapping synthetic peptides (18 to 31 amino acids) of the CD region of VP6, Table 10 (TDLITNYSPSREDNLQRVFTVASIRSMLVK; Rotavirus VP6 fragment) | % Reduction in shedding | 64
Peptide 6: 25 mer synthetic peptide of the CD region of VP6 containing the 14-amino acid sequence RLSFQLMRPPNMTP, Table 10 (RNFDTIRLSFQLMRPPNMTPAVTAL; Rotavirus VP6 fragment) | % Reduction in shedding | 88
Peptide 9: one of 11 overlapping synthetic peptides (18 to 31 amino acids) of the CD region of VP6, Table 10 (VLADASETMLANVTSVRQEYAI; Rotavirus VP6 fragment) | % Reduction in shedding | 0
Peptide 7: one of 11 overlapping synthetic peptides (18 to 31 amino acids) of the CD region of VP6, Table 10 (MTPAVTALFPNAQPFEHHATVGLTLRIDSA; Rotavirus VP6 fragment) | % Reduction in shedding | 18
Peptide 10: one of 11 overlapping synthetic peptides (18 to 31 amino acids) of the CD region of VP6, Table 10 (QEYAIPVGPVFPPGMNWTDLITNYSPSRED; Rotavirus VP6 fragment) | % Reduction in shedding | 0
Peptide 5: one of 11 overlapping synthetic peptides (18 to 31 amino acids) of the CD region of VP6, Table 10 (NGQVINTYQARFGTIVARNFDTIRLSFQLM; Rotavirus VP6 fragment) | % Reduction in shedding | 0
